Tested on: MPNST complex spheroid with HUVEC/MSC, growth, % test/control
ASSAY_REMARKS: Anticancer human tumor MPNST cell line growth inhibition [Asc];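 further: compounds left on spheroids for seven days before reading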
SETTINGS: second compound 1 µM; first compound 0.00316 µM; stronger effect = lower value
MEASUREMENT_LABEL: viability, T/C (%)
Kindly answer with a numeric value in %, unit omitted.

Query: Give me measured viability, T/C, please, for this compound: O=C(c1ccc(F)c(F)c1Nc1ccc(I)cc1F)N1CC(O)([C@@H]2CCCCN2)C1 + Cc1c(S(C)(=O)=O)c(-c2cc(F)cc(N3CCN(c4ccc(NS(=O)(=O)c5ccc(NC(CCN6CCC(C(=O)OCCCP(=O)(O)O)CC6)CSc6ccccc6)c(S(=O)(=O)C(F)(F)F)c5)cc4)CC3)c2)c(-c2ccc(Cl)cc2)n1C(C)C
Reply: 82.9

Query: Quick one: give measured viability, T/C for COc1c(OCCCN2CCOCC2)ccc2c3n(c(=NC(=O)c4cnc(N)nc4)nc12)CCN3 + CNC(C)C(=O)NC1CN(S(=O)(=O)c2cccc(S(=O)(=O)N3CCC4CCC(C(=O)NC(c5ccccc5)c5ccccc5)N4C(=O)C(NC(=O)C(C)NC)C3)c2)CCC2CCC(C(=O)NC(c3ccccc3)c3ccccc3)N2C1=O
Reply: 65.7

These data points were gathered from PubChem BioAssay AID1963442.
